- system: Protein Mdm4 (Homo sapiens) + E3 ubiquitin-protein ligase Mdm2 (Homo sapiens) (UniProt O15151+Q00987)
- Sequence (O15151 whole entry, looked up): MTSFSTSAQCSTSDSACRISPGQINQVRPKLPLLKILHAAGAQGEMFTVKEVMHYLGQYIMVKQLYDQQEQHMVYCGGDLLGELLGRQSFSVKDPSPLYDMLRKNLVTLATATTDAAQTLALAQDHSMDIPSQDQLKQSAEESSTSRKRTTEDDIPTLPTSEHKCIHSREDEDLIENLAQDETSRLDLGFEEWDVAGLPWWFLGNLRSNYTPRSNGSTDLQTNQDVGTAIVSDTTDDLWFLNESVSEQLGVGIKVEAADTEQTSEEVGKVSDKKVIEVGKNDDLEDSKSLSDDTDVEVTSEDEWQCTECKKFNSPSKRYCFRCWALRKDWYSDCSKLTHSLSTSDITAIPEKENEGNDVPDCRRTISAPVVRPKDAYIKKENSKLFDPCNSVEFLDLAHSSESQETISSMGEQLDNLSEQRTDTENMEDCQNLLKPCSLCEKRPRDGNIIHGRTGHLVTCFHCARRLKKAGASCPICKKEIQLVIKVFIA
- Sequence (Q00987 whole entry, looked up): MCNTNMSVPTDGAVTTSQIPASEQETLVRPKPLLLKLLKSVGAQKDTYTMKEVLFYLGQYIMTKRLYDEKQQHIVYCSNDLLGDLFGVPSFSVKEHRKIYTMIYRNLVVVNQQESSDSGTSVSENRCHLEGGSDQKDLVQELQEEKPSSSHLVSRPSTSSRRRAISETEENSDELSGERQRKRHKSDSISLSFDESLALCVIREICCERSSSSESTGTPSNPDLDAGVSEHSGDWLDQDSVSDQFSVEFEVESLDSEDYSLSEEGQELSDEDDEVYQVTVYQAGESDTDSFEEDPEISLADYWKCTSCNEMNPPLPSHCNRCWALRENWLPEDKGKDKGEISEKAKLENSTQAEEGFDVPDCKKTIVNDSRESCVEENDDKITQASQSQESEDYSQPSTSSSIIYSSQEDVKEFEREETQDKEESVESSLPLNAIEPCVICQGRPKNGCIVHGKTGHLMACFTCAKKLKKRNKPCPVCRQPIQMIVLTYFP
- assayComment: inhibitors of human Mdm2-MdmX association, primary screen, cell-based, luminescence, split luciferase, SaOS-2, uHTS (AID 485346)
- experimentalSetup: SaOS-2 split-luciferase Mdm2/MdmX complementation, at 8 µM, active compounds read high
Screen size: about 330,000 compounds; about 10,000 (3%) were called active. The sample holds actives, similar compounds and a random draw of the others, so the mix is not that of the screen.

compound | unitSymbol | inhibition
CCN(CC(=O)Nc1ccccc1C(=O)NC1CC1)Cc1cccs1 | % | 30.2
Brc1cnc(N2CCCC2)nc1N1CCCCC1 | % | -7.46
O=C(Cc1ccc(-n2c(=O)[nH]c3ccccc3c2=O)cc1)N1CCN(c2cccc(Cl)c2)CC1 | % | -17
COc1cccc(CNC(=O)Cc2csc(Nc3nc(=S)[nH]c4ccccc34)n2)c1 | % | 60.5
COc1cccc(CNC(=O)c2n[nH]c3ccccc23)c1 | % | -9.68
COc1ccc(CNC(=O)[C@H](Cc2c[nH]c3ccccc23)NC(C)=O)cc1OC | % | 10.9
CC1CC(C)CN(S(=O)(=O)c2cccc(C(=O)N3C(=O)c4cccc(N)c4C3=O)c2)C1 (stereo not given) | % | 19.4
COc1cccc(NC(=O)[C@H](Cc2c[nH]c3ccccc23)NC(=O)[C@@H]2Cc3ccccc3CN2)c1 | % | 94.4
CCCC[C@@H]1CN=C(N)N1CCCC | % | 16.5
COc1ccc(C(=O)C2CCCN(Cc3cccn3-c3ccccn3)C2)c(C)c1 (stereo not given) | % | 46.4

###

- system: Protein Mdm4 (Homo sapiens) + E3 ubiquitin-protein ligase Mdm2 (Homo sapiens) (UniProt O15151+Q00987)
- assayComment: inhibitors of human Mdm2-MdmX association, primary screen, cell-based, luminescence, split luciferase, SaOS-2, uHTS (AID 485346)
- experimentalSetup: SaOS-2 split-luciferase Mdm2/MdmX complementation, at 8 µM, active compounds read high
Out of some 330,000 compounds screened, about 10,000 (3%) were called active. This excerpt belongs to a sample that is enriched for actives.

molecule | inhibition
O=C(COc1ccccc1O)NC1CCCC1 | 7.91% (inactive)
O=C(CCl)NNc1nc(-c2ccccc2)c2cc(Cl)ccc2n1 | 19.7% (inactive)
O=[N+]([O-])c1cccc2ncccc12 | 10.6% (inactive)
Cc1ccccc1C(CC(=O)c1cccs1)C(C#N)C#N (stereo unspecified) | 75.4% (active)
COc1ccc(S(=O)(=O)N2CCN(CC(=O)NCC3(N4CCOCC4)CCCCC3)CC2)cc1 | -0.077% (inactive)
C=CCOc1ccc(/C=C/C(=O)OC(C)C(=O)Nc2ccc(NC(C)=O)cc2)cc1 (stereo unspecified) | 4.16% (inactive)
Cc1cccc(NC(=O)Nc2cccc(Oc3c(F)c(F)c(F)c(F)c3F)c2)c1 | 74.3% (active)
Cc1nn(C)c(Cl)c1CN1CCC(n2nccc2NC(=O)C2CCCC2)CC1 | 12.6% (inactive)
COc1cc(/C=C/C(=O)OCC(=O)NCCCc2ccccc2)ccc1O | -15.8% (inactive)
OCCCNc1nc(-c2ccccc2)c2cc(Cl)ccc2n1 | 19.5% (inactive)
CCc1cccc(C)c1NC(=O)COC(=O)CNC(=O)c1cccs1 | -18.9% (inactive)
